Exercise: state measured pKi for each of the molecules provided.
PROTOCOL_SUMMARY: Binding affinity for protein kinase C-alpha C1a and C1b domains
Answers are plain numbers, as −log10 of the molar value.

In [3]: df
Out[3]:
                                   molecule  recorded_result
0  CC(C)CC(C/C=C1\CC(CO)(COC(=O)C(C)(C)C)OC1=O)CC(C)C (centres undefined)             8.49
1  CC(C)C(C/C=C1\CC(CO)(COC(=O)C(C)(C)C)OC1=O)C(C)C (centres undefined)             7.95
2  CC(C)CC(C/C=C1/CC(CO)(COC(=O)C(C)(C)C)OC1=O)CC(C)C (centres undefined)             8.54

Continue with the molecule presented below.
Record summary for CC(C)C(C/C=C1/CC(CO)(COC(=O)C(C)(C)C)OC1=O)C(C)C (centres undefined) : reported pKi = 8.08

----------
TARGET_UNDER_TEST: Protein kinase C delta type (Homo sapiens, UniProt Q05655)
Sequence (Q05655 whole entry, the tested form may be a part): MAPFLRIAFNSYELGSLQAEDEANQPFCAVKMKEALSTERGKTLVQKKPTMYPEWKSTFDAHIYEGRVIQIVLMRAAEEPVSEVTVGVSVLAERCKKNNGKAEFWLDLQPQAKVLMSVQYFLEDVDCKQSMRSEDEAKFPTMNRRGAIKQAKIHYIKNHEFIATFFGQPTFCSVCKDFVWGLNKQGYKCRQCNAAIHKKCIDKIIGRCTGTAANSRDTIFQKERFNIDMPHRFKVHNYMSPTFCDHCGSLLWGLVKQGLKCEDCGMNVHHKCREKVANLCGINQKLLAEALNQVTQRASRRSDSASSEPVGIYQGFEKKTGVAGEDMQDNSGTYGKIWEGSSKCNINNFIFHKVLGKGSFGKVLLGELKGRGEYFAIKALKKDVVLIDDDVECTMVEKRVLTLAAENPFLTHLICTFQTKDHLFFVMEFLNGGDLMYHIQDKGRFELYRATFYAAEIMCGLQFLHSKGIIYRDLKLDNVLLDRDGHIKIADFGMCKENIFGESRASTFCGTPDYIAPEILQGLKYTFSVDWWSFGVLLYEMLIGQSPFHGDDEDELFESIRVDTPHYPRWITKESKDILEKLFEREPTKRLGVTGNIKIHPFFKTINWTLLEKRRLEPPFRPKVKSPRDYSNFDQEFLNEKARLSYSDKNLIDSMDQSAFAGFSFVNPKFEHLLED
PROTOCOL_SUMMARY: Binding affinity for isolated C1b domain of protein kinase C-delta
RESULT_TYPE: Ki (nM)
Answers are plain numbers, in nM.

Example cases with answers are listed next.
>>> df
                                   compound  result_type  recorded_result
0  CC(C)CC(C/C=C1/CC(CO)(COC(=O)C(C)(C)C)OC1=O)CC(C)C (centres undefined)           Ki             1.16
1  CC(C)C(C/C=C1/C(=O)OC(CO)(COC(=O)C(C)(C)C)C1(C)C)C(C)C (centres undefined)           Ki             3470
2  CC(C)CC(C/C=C1\CC(CO)(COC(=O)C(C)(C)C)OC1=O)CC(C)C (centres undefined)           Ki              0.9

Record summary for CC(C)C(C/C=C1\C(=O)OC(CO)(COC(=O)C(C)(C)C)C1(C)C)C(C)C (centres undefined) : reported Ki = 1460
